Assay Procedure: RP, Waters ACQUITY UPLC BEH C18, 100 × 2.1 mm, 1.7 µm, 35 °C, 0.35 mL/min, estimated dead time 0.63 min; A: water + 0.01% formic acid + 5 mM ammonium formate, pH 3.71; B: acetonitrile + 0.01% formic acid, pH 3.71; gradient (min/%B) 0/5 0.5/5 16/95 16.1/99 19/99 19.1/5 21/5
Measurement Parameters: stereoisomer not certain
Endpoint: LC retention time (min)

| Compound | Endpoint | Reading |
| --- | --- | --- |
| CCC(C(N)=O)N1CCCC1=O (configuration not stated) [Levetiracetam] | LC retention time | 2.43 |
| CC(C)Cc1ccc(C(C)C(=O)O)cc1 (configuration not stated) [Ibuprofen] | LC retention time | 10.7 |
| CC12CC3CC(C)(C1)CC(N)(C3)C2 [Memantine] | LC retention time | 5.86 |
| CN1CCCC1c1cccnc1 (configuration not stated) [Nicotine] | LC retention time | 1.17 |
| CC(C)NCC(O)c1ccc(N)c(C#N)c1 (configuration not stated) [Cimaterol] | LC retention time | 2.1 |
| NC(=O)c1cccnc1 [Nicotinamide] | LC retention time | 1.2 |
| C#CCN(C)C(C)Cc1ccccc1 (configuration not stated) [Deprenyl/Selegiline] | LC retention time | 4.53 |
| c1cc2c(cc1CN1CCNCC1)OCO2 [Piperazine-1-Piperonyl] | LC retention time | 3.2 |
| CCNCC(=O)Nc1c(C)cccc1C [Lidocaine-Nor] | LC retention time | 3.56 |
| NCC(O)c1ccccc1 (configuration not stated) [Apophedrin (Phenylethanolamine)] | LC retention time | 1.65 |
| CC(N)Cc1ccccc1 (configuration not stated) [Amphetamine] | LC retention time | 3.28 |
| CC12CCC(O)CC1CCC1C2C(=O)CC2(C)C1CCC2(O)C(=O)CO (configuration not stated) | LC retention time | 7.37 |
| COc1ccc(C(=O)c2ccccc2)c(O)c1 [Benzophenon 3 (=2-Hydroxy-4-methoxybenzophenon)] | LC retention time | 11 |
| CC(N)C12CC3CC(CC(C3)C1)C2 (configuration not stated) [Rimantadin] | LC retention time | 5.86 |
| CCOC(=O)c1ccccc1C(=O)OCC [Phthalate-Diethyl] | LC retention time | 9.21 |
| N#CC1CCCN1C(=O)CNC12CC3CC(CC(O)(C3)C1)C2 (configuration not stated) [Vildagliptin] | LC retention time | 2.68 |
| C[N+](C)(C)CCCl [Chlormequate] | LC retention time | 0.84 |
| CC12CCC(=O)C=C1CCC1C2CCC2(C)C(O)CCC12 (configuration not stated) [Testosterone] | LC retention time | 8.76 |
| Nc1nc(N)nc(NC2CC2)n1 [Cyromazine] | LC retention time | 1.23 |
| CCCCC(CC)COC(=O)C(C#N)=C(c1ccccc1)c1ccccc1 (configuration not stated) [Octocrylene] | LC retention time | 15.3 |
| CCOP(=O)(OCC)OCC [Phosphate-triethyl] | LC retention time | 5.48 |
| COP(=O)(OC)C(O)C(Cl)(Cl)Cl (configuration not stated) [Trichlorfon] | LC retention time | 4.26 |
